Values from paper PMC8566089

measured.target: COX-2 (Homo sapiens)
Sequence (P35354 18-604): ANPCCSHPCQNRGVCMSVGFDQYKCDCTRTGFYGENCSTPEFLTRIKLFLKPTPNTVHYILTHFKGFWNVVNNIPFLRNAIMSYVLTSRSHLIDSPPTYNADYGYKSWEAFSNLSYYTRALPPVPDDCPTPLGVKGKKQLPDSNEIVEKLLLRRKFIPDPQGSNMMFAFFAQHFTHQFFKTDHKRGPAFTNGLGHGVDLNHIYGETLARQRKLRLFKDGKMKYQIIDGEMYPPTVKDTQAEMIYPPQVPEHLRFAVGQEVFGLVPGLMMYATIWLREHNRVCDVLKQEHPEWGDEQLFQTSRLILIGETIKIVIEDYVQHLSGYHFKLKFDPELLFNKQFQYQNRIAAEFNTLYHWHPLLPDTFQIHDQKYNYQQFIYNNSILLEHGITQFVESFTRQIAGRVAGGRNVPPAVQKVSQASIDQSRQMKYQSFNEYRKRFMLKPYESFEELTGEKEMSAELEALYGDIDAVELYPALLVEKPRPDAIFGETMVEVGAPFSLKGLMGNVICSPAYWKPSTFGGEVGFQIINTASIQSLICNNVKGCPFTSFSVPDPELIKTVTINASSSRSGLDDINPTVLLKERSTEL
assay.comment: COX-2 inhibitor screening kit
Format: biochemical

[
  {
    "input.smiles": "CC(=O)Oc1ccccc1C(=O)N1C/C(=C\\c2ccc(C)cc2)C(=O)/C(=C/c2ccc(C)cc2)C1",
    "SI = IC50(COX-1)/IC50(COX-2)": 0.160
  },
  {
    "input.smiles": "CC(=O)Oc1ccccc1C(=O)N1C/C(=C\\c2cccs2)C(=O)/C(=C/c2cccs2)C1",
    "SI = IC50(COX-1)/IC50(COX-2)": 0.589
  },
  {
    "input.smiles": "CC(=O)Oc1ccccc1C(=O)N1C/C(=C\\c2ccc(Br)cc2)C(=O)/C(=C/c2ccc(Br)cc2)C1",
    "SI = IC50(COX-1)/IC50(COX-2)": 0.121
  },
  {
    "input.smiles": "COc1cc(/C=C2\\CN(C(=O)c3cc(Cl)ccc3OC(C)=O)C/C(=C\\c3cc(OC)c(OC)c(OC)c3)C2=O)cc(OC)c1OC",
    "SI = IC50(COX-1)/IC50(COX-2)": 0.121
  },
  {
    "input.smiles": "CC(=O)Oc1ccc(Cl)cc1C(=O)N1C/C(=C\\c2cccs2)C(=O)/C(=C/c2cccs2)C1",
    "SI = IC50(COX-1)/IC50(COX-2)": 2.065
  },
  {
    "input.smiles": "CC(=O)Oc1ccccc1C(=O)N1C/C(=C\\c2ccc(Cl)cc2)C(=O)/C(=C/c2ccc(Cl)cc2)C1",
    "SI = IC50(COX-1)/IC50(COX-2)": 0.121
  },
  {
    "input.smiles": "CC(=O)Oc1ccccc1C(=O)N1C/C(=C\\c2ccc(F)cc2)C(=O)/C(=C/c2ccc(F)cc2)C1",
    "SI = IC50(COX-1)/IC50(COX-2)": 0.330
  },
  {
    "input.smiles": "CC(=O)Oc1ccc(Cl)cc1C(=O)N1C/C(=C\\c2ccc(Cl)cc2)C(=O)/C(=C/c2ccc(Cl)cc2)C1",
    "SI = IC50(COX-1)/IC50(COX-2)": 0.578
  }
]

---

Reported IC50 values follow for various molecules
measured.target: COX-1 (Ovis aries, UniProt P05979)
Sequence (P05979 25-600): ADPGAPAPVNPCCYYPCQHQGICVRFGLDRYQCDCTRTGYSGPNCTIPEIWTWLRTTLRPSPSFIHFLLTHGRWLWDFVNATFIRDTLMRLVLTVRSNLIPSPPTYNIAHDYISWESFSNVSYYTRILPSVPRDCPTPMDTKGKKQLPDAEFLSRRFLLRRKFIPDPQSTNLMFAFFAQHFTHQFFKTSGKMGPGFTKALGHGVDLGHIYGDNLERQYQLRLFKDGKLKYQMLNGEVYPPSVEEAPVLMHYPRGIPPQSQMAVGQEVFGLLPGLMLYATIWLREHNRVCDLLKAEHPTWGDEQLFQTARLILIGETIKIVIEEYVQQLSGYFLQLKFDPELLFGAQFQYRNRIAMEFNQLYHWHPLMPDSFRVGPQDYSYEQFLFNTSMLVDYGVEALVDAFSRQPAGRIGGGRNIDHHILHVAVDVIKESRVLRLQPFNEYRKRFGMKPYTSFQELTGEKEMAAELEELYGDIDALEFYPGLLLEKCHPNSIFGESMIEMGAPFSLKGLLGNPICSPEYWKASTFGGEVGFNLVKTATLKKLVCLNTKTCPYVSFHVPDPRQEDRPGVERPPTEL
assay.comment: COX-1 inhibitor screening kit
Type: biochemical
reported.property: IC50

[
  {
    "input.smiles": "COc1ccc(/C=C2\\CN(C(=O)c3ccccc3OC(C)=O)C/C(=C\\c3ccc(OC)cc3)C2=O)cc1",
    "val": "0.147 µM"
  },
  {
    "input.smiles": "COc1cc(/C=C2\\CN(C(=O)c3ccccc3OC(C)=O)C/C(=C\\c3cc(OC)c(OC)c(OC)c3)C2=O)cc(OC)c1OC",
    "val": "0.147 µM"
  },
  {
    "input.smiles": "CC(=O)Oc1ccc(Cl)cc1C(=O)N1C/C(=C\\c2ccccc2)C(=O)/C(=C/c2ccccc2)C1",
    "val": "0.142 µM"
  },
  {
    "input.smiles": "COc1cc(/C=C2\\CN(C(=O)c3cc(Cl)ccc3OC(C)=O)C/C(=C\\c3cc(OC)c(OC)c(OC)c3)C2=O)cc(OC)c1OC",
    "val": "0.193 µM"
  },
  {
    "input.smiles": "CC(=O)Oc1ccc(Cl)cc1C(=O)N1C/C(=C\\c2ccc(Cl)cc2)C(=O)/C(=C/c2ccc(Cl)cc2)C1",
    "val": "0.391 µM"
  },
  {
    "input.smiles": "CC(=O)Oc1ccccc1C(=O)N1C/C(=C\\c2ccc(Br)cc2)C(=O)/C(=C/c2ccc(Br)cc2)C1",
    "val": "0.134 µM"
  },
  {
    "input.smiles": "CC(=O)Oc1ccccc1C(=O)N1C/C(=C\\c2cccs2)C(=O)/C(=C/c2cccs2)C1",
    "val": "0.455 µM"
  },
  {
    "input.smiles": "COc1ccc(/C=C2\\CN(C(=O)c3ccccc3OC(C)=O)C/C(=C\\c3ccc(OC)c(OC)c3)C2=O)cc1OC",
    "val": "0.262 µM"
  },
  {
    "input.smiles": "COc1ccc(/C=C2\\CN(C(=O)c3cc(Cl)ccc3OC(C)=O)C/C(=C\\c3ccc(OC)c(OC)c3)C2=O)cc1OC",
    "val": "0.163 µM"
  }
]

---

measured.target: VEGFR-2 (Homo sapiens, UniProt P35968)
Sequence (P35968 20-1356): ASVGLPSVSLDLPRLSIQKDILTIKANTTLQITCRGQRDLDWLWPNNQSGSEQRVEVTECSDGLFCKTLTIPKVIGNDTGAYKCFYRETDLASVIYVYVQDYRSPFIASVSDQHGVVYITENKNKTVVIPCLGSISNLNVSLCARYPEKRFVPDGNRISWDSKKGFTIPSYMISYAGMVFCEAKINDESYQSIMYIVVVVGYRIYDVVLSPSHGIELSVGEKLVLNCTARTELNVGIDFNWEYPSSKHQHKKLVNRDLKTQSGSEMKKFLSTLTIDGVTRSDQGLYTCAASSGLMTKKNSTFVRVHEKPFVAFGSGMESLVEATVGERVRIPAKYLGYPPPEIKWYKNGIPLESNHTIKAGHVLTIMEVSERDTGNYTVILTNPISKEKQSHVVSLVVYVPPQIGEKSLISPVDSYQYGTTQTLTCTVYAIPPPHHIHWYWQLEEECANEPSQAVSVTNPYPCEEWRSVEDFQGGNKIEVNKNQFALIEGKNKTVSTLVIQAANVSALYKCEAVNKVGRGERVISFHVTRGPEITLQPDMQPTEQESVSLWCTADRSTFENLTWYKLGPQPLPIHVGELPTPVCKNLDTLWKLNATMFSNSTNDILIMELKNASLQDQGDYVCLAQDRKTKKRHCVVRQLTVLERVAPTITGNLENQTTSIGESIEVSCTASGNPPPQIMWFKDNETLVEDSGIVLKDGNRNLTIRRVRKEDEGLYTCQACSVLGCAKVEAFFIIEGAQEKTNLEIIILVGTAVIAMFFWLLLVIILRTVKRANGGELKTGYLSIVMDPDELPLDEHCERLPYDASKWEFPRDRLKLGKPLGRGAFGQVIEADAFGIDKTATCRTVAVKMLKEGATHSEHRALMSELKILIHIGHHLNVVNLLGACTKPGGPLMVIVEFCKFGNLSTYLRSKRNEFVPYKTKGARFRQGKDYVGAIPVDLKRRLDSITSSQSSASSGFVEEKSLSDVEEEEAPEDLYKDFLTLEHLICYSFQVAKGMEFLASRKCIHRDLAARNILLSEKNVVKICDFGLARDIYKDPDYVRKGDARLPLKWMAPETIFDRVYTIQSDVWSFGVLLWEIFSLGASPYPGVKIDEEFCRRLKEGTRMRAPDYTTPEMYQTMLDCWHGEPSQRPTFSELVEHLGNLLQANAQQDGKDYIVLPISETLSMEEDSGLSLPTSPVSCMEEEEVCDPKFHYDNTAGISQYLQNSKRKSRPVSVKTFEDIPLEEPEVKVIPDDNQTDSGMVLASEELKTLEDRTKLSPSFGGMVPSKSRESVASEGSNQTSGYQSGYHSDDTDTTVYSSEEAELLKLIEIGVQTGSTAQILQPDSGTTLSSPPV
assay.comment: VEGFR-2 Western blot in HCT116
Format: cell-based
condition.info: Western blot at MTT-IC50, control RQ 3.817
reported.property: VEGFR2 HCT116 RQ (relative quantification)

[
  {
    "molecule": "COc1cc(/C=C2\\CN(C(=O)c3cc(Cl)ccc3OC(C)=O)C/C(=C\\c3cc(OC)c(OC)c(OC)c3)C2=O)cc(OC)c1OC [Compound 5o]",
    "val": 1.16
  },
  {
    "molecule": "COc1cc(/C=C2\\CN(C(=O)c3ccccc3OC(C)=O)C/C(=C\\c3cc(OC)c(OC)c(OC)c3)C2=O)cc(OC)c1OC [Compound 5h]",
    "val": 2.398
  },
  {
    "molecule": "COc1ccc(/C=C2\\CN(C(=O)c3ccccc3OC(C)=O)C/C(=C\\c3ccc(OC)c(OC)c3)C2=O)cc1OC [Compound 5g]",
    "val": 2.393
  },
  {
    "molecule": "CC(=O)Oc1ccccc1C(=O)N1C/C(=C\\c2ccc(Br)cc2)C(=O)/C(=C/c2ccc(Br)cc2)C1 [Compound 5d]",
    "val": 1.5
  }
]

---

measured.target: VEGFR-2 (Homo sapiens, UniProt P35968)
assay.comment: VEGFR-2 Western blot in HCT116
Type: cell-based
condition.info: Western blot at MTT-IC50
# cutoff 60% applies to VEGFR2 HCT116 % Inhibition; >= gives condition met, < gives condition not met

[
  {
    "compound": "CC(=O)Oc1ccccc1C(=O)N1C/C(=C\\c2ccc(C)cc2)C(=O)/C(=C/c2ccc(C)cc2)C1",
    "cat": "condition not met"
  },
  {
    "compound": "CC(=O)Oc1ccc(Cl)cc1C(=O)N1C/C(=C\\c2ccc(Cl)cc2)C(=O)/C(=C/c2ccc(Cl)cc2)C1",
    "cat": "condition met"
  },
  {
    "compound": "COc1ccc(/C=C2\\CN(C(=O)c3cc(Cl)ccc3OC(C)=O)C/C(=C\\c3ccc(OC)cc3)C2=O)cc1",
    "cat": "condition met"
  },
  {
    "compound": "CC(=O)Oc1ccccc1C(=O)N1C/C(=C\\c2ccc(Cl)cc2)C(=O)/C(=C/c2ccc(Cl)cc2)C1",
    "cat": "condition met"
  },
  {
    "compound": "COc1ccc(/C=C2\\CN(C(=O)c3ccccc3OC(C)=O)C/C(=C\\c3ccc(OC)c(OC)c3)C2=O)cc1OC",
    "cat": "condition not met"
  },
  {
    "compound": "CC(=O)Oc1ccccc1C(=O)N1C/C(=C\\c2ccccc2)C(=O)/C(=C/c2ccccc2)C1",
    "cat": "condition met"
  },
  {
    "compound": "CC(=O)Oc1ccccc1C(=O)N1C/C(=C\\c2cccs2)C(=O)/C(=C/c2cccs2)C1",
    "cat": "condition not met"
  },
  {
    "compound": "CC(=O)Oc1ccc(Cl)cc1C(=O)N1C/C(=C\\c2cccs2)C(=O)/C(=C/c2cccs2)C1",
    "cat": "condition not met"
  },
  {
    "compound": "COc1ccc(/C=C2\\CN(C(=O)c3ccccc3OC(C)=O)C/C(=C\\c3ccc(OC)cc3)C2=O)cc1",
    "cat": "condition met"
  },
  {
    "compound": "CC(=O)Oc1ccccc1C(=O)N1C/C(=C\\c2ccc(F)cc2)C(=O)/C(=C/c2ccc(F)cc2)C1",
    "cat": "condition met"
  },
  {
    "compound": "COc1cc(/C=C2\\CN(C(=O)c3ccccc3OC(C)=O)C/C(=C\\c3cc(OC)c(OC)c(OC)c3)C2=O)cc(OC)c1OC",
    "cat": "condition not met"
  },
  {
    "compound": "COc1cc(/C=C2\\CN(C(=O)c3cc(Cl)ccc3OC(C)=O)C/C(=C\\c3cc(OC)c(OC)c(OC)c3)C2=O)cc(OC)c1OC",
    "cat": "condition met"
  },
  {
    "compound": "O=c1[nH]cc(F)c(=O)[nH]1 [Compound 5-FU, 5-fluorouracil, reference compound]",
    "cat": "condition met"
  },
  {
    "compound": "CC(=O)Oc1ccc(Cl)cc1C(=O)N1C/C(=C\\c2ccccc2)C(=O)/C(=C/c2ccccc2)C1",
    "cat": "condition met"
  },
  {
    "compound": "COc1ccc(/C=C2\\CN(C(=O)c3cc(Cl)ccc3OC(C)=O)C/C(=C\\c3ccc(OC)c(OC)c3)C2=O)cc1OC",
    "cat": "condition not met"
  },
  {
    "compound": "CC(=O)Oc1ccc(Cl)cc1C(=O)N1C/C(=C\\c2ccc(Br)cc2)C(=O)/C(=C/c2ccc(Br)cc2)C1",
    "cat": "condition met"
  }
]
